Biological target: Cytochrome P450 2C19 (Homo sapiens)
Experiment: Cytochrome panel assay with activity outcomes
Conditions: recombinant CYP, pro-luciferin dealkylation, luminescence, p450-cyp2c19; series mostly up to 57.1 µM
Out of some 16,000 compounds screened, about 5,800 (36%) were called active. Inconclusive results (about 23%) are left out. Calls come from the whole dose curve; as a rule, active = well fitted curve in the direction sought with a large enough effect; inconclusive = small, poorly fitted or top-dose-only effect, or effect the other way; inactive = no such curve, though single readings can be large or run the other way. The list shows a part of the results.
Choose the fitting class; nothing outside active, inactive is accepted.

# count of solved cases: 2
{"columns": ["MOLECULE", "GROUP_LABEL"],
 "data": [
  ["COc1ccc(/C=N/Nc2snc(SC)c2C#N)cc1OC", "active"],
  ["Cc1cc(C)cc(N(C(=O)Cc2cccs2)C(C(=O)NC2CCCCC2)c2ccccn2)c1 (configuration not stated)", "active"]
]}

We now examine a further molecule.
Prompt line: Each molecule tested received a call. Report the one for `CC(=O)NCCNc1nc(-c2ccccc2Cl)nc2ccccc12` .
Response line: active
